Numbers sourced from patent US6414000B1.

procedure summary: logP, n-octanol/water partition coefficient by reversed phase HPLC
Assay type: physicochemical
settings: A isomer (possible geometric isomer), reversed phase HPLC using H2O/CH3CN

molecule: CCCCON=C(C)C(C)Oc1ccc(-c2ccc(C3COC(c4c(F)cccc4F)=N3)cc2)cc1 (mixture of isomers)
logP (A isomer): 5.94
--
molecule: CCCCON=C(C)C(C)Oc1ccc(-c2ccc(C3COC(c4ccccc4Cl)=N3)cc2)cc1Cl (mixture of isomers)
logP (A isomer): 6.84
--
molecule: CCCCON=C(C)C(C)Oc1ccc(-c2ccc(C3COC(c4c(F)cccc4F)=N3)cc2)cc1Cl (mixture of isomers)
logP (A isomer): 6.37
